Recorded measurements of GI50, one per entry
Tested on: MCF7
protocol: Growth inhibition of human MCF7 cells measured after 48 hrs by SRB assay
Assay type: functional
# output: numeric value plus its unit

Worked cases, answers included:
inputSmiles | GI50
C[C@]12CC[C@@H](O)C=C1CC[C@@H]1[C@@H]2[C@@H](O)C[C@]2(C)[C@@H](c3ccc(=O)oc3)CC[C@]12O | 3.53 µM
C[C@]12C[C@H](O)[C@H]3[C@@H](CCC4=C[C@@H](O[C@@H]5O[C@H](CO)[C@@H](O)[C@H](O)[C@H]5O)CC[C@@]43CO)[C@@]1(O)CC[C@@H]2c1ccc(=O)oc1 | 0.009 µM
CCO[C@H]1C=C2CC[C@@H]3[C@H]([C@@H](O)C[C@]4(C)[C@@H](c5ccc(=O)oc5)CC[C@]34O)[C@@]2(C)CC1 | 1.52 µM
CCO[C@@H]1C=C2CC[C@@H]3[C@H]([C@@H](O)C[C@]4(C)[C@@H](c5ccc(=O)oc5)CC[C@]34O)[C@@]2(C)CC1 | 0.055 µM
CC(=O)OC[C@H]1O[C@@H](O[C@@H]2C=C3CC[C@@H]4[C@H]([C@@H](O)C[C@]5(C)[C@@H](c6ccc(=O)oc6)CC[C@]45O)[C@@]3(C)CC2)[C@H](OC(C)=O)[C@@H](OC(C)=O)[C@@H]1OC(C)=O | 0.103 µM

Continue with the next molecule.
Reported GI50 ( C[C@]12CC[C@H](O)C=C1CC[C@@H]1[C@@H]2[C@@H](O)C[C@]2(C)[C@@H](c3ccc(=O)oc3)CC[C@]12O ) = 0.473 µM

---

System: TK-10
protocol: Growth inhibition of human TK-10 cells measured after 48 hrs by SRB assay
Type: functional
quantityKind: GI50 (µM)
Give the number; µM is assumed, so skip it.

Reported GI50 ( C[C@]12CC[C@H]3[C@@H](CC[C@H]4C[C@@H](O)CC[C@@]43C=O)[C@@]1(O)CC[C@@H]2c1ccc(=O)oc1 ) = 2.58

Reported GI50 ( CC(=O)OC[C@H]1O[C@@H](O[C@@H]2C=C3CC[C@@H]4[C@H](C(=O)C[C@]5(C)[C@@H](c6ccc(=O)oc6)CC[C@]45O)[C@@]3(C)CC2)[C@H](OC(C)=O)[C@@H](OC(C)=O)[C@@H]1OC(C)=O ) = 6.22

Reported GI50 ( C[C@]12C[C@H](O)[C@H]3[C@@H](CCC4=C[C@@H](O[C@@H]5O[C@H](CO)[C@@H](O)[C@H](O)[C@H]5O)CC[C@@]43CO)[C@@]1(O)CC[C@@H]2c1ccc(=O)oc1 ) = 0.008

Reported GI50 ( C[C@]12CC[C@H](O)C=C1CC[C@@H]1[C@@H]2[C@@H](O)C[C@]2(C)[C@@H](c3ccc(=O)oc3)CC[C@]12O ) = 0.75

---

Tested on: MCF7
protocol: Growth inhibition of human MCF7 cells measured after 48 hrs by SRB assay
Type: functional
Recorded measurements of GI50, one per entry
Give the number; nM is assumed, so skip it.

Worked cases, answers included:
inputSmiles | measurementUnit | GI50
C[C@]12CC[C@H](O[C@@H]3O[C@H](CO)[C@@H](O)[C@H](O)[C@H]3O)C=C1CC[C@@H]1[C@@H]2[C@@H](O)C[C@]2(C)[C@@H](c3ccc(=O)oc3)CC[C@]12O | nM | 42
C[C@]12CC[C@H]3[C@@H](CC[C@H]4C[C@@H](O)CC[C@@]43C=O)[C@@]1(O)CC[C@@H]2c1ccc(=O)oc1 | nM | 990

Case CC(=O)OC[C@H]1O[C@@H](O[C@@H]2C=C3CC[C@@H]4[C@H](C(=O)C[C@]5(C)[C@@H](c6ccc(=O)oc6)CC[C@]45O)[C@@]3(C)CC2)[C@H](OC(C)=O)[C@@H](OC(C)=O)[C@@H]1OC(C)=O , MCF7, GI50 recorded as 7710
